MIC values for the compounds below.
Tested on: Bacteroides fragilis
Assay: Antibacterial activity against Bacteroides fragilis UC12199
Type: functional

structure | study.system | MIC
CC(=O)NC[C@@H]1OC(=O)N2c3ccccc3CC[C@H]12 | Bacteroides fragilis | > 32 µg/mL
CC(=O)NC[C@@H]1OC(=O)N2c3ccc(S(=O)(=O)N4CCOCC4)cc3C[C@@H]12 | Bacteroides fragilis | > 32 µg/mL
CC(=O)NC[C@@H]1OC(=O)N2c3ccc(-c4ccccc4)cc3C[C@@H]12 | Bacteroides fragilis | 32 µg/mL
CN[C@H](CC(C)C)C(=O)N[C@H]1C(=O)N[C@@H](CC(N)=O)C(=O)N[C@H]2C(=O)N[C@H]3C(=O)N[C@H](C(=O)N[C@H](C(=O)O)c4cc(O)cc(O)c4-c4cc3ccc4O)[C@H](O)c3ccc(c(Cl)c3)Oc3cc2cc(c3O[C@@H]2O[C@H](CO)[C@@H](O)[C@H](O)[C@H]2O[C@H]2C[C@](C)(N)[C@H](O)[C@H](C)O2)Oc2ccc(cc2Cl)[C@H]1O | Bacteroides fragilis | > 16 µg/mL
CC(=O)NC[C@@H]1OC(=O)N2c3ccc(-c4ccncc4)cc3C[C@@H]12 | Bacteroides fragilis | 8 µg/mL
CC(=O)NC[C@@H]1OC(=O)N2c3ccc(S(=O)(=O)N4CCCCC4)cc3C[C@@H]12 | Bacteroides fragilis | > 32 µg/mL
CC(=O)NC[C@@H]1OC(=O)N2c3ccc(S(=O)(=O)Nc4ccccc4)cc3C[C@@H]12 | Bacteroides fragilis | > 32 µg/mL
CC(=O)NC[C@H]1CN(c2ccc(N3CCOCC3)cc2)C(=O)O1 | Bacteroides fragilis | 4 µg/mL
CC(=O)NC[C@@H]1OC(=O)N2c3ccc(C(C)=O)cc3CC[C@@H]12 | Bacteroides fragilis | > 16 µg/mL

* * *

System: Bacteroides fragilis
Assay: Antibacterial activity against Bacteroides fragilis UC12199
Assay type: functional

compound | lt.gt.eq | MIC, µg/mL
CC(=O)NCC1OC(=O)N2c3ccc(C(C)=O)cc3CC12 (single isomer, unassigned; (+)) | = | 4
CC(=O)NC[C@@H]1OC(=O)N2c3ccccc3CC[C@@H]12 | > | 32
CC(=O)NC[C@@H]1OC(=O)N2c3ccc(S(N)(=O)=O)cc3C[C@@H]12 | > | 32
CC(=O)NC[C@@H]1OC(=O)N2c3ccc(-c4cccnc4)cc3CC[C@@H]12 | > | 32
CC(=O)NC[C@H]1CN(c2ccc(N3CCOCC3)c(F)c2)C(=O)O1 | = | 4
CC(=O)NC[C@@H]1OC(=O)N2c3ccc(-c4cccnc4)cc3CC[C@H]12 | > | 32
CC(=O)NC[C@@H]1OC(=O)N2c3ccc(S(=O)(=O)NC4CCCC4)cc3C[C@@H]12 | > | 32
CC(=O)NC[C@@H]1OC(=O)N2c3ccc(-c4cccnc4)cc3C[C@@H]12.Cl | = | 4
CC(=O)NC[C@H]1CN(c2ccc(C(C)=O)cc2)C(=O)O1 (racemic) | = | 8

* * *

System: Bacteroides fragilis
Experiment: Antibacterial activity against Bacteroides fragilis UC12199
Format: functional

structure | MIC
CC(=O)NC[C@@H]1OC(=O)N2c3ccc(N4CCOCC4)cc3C[C@@H]12 | > 16 µg/mL
CC(=O)NC[C@@H]1OC(=O)N2c3ccc(S(=O)(=O)N(C)C)cc3C[C@@H]12 | > 32 µg/mL
CC(=O)NC[C@@H]1OC(=O)N2c3ccc(-c4cncnc4)cc3C[C@@H]12 | 8 µg/mL
CC(=O)NC[C@@H]1OC(=O)N2c3ccccc3C[C@@H]12 | > 32 µg/mL
CC(=O)NC[C@@H]1OC(=O)N2c3ccc(S(=O)(=O)NCc4ccccc4)cc3C[C@@H]12 | > 32 µg/mL
CC(=O)NC[C@@H]1OC(=O)N2c3ccc(-c4cccnc4)cc3C[C@@H]12 | 2 µg/mL

* * *

System: Enterococcus faecalis
Assay: Antibacterial activity against Enterococcus faecalis UC9217
Format: functional

structure | MIC
CC(=O)NC[C@@H]1OC(=O)N2c3ccc(S(=O)(=O)N4CCOCC4)cc3C[C@@H]12 | > 64 mg/L
CC(=O)NC[C@@H]1OC(=O)N2c3ccc(C(C)=O)cc3CC[C@@H]12 | > 16 mg/L
CCNS(=O)(=O)c1ccc2c(c1)C[C@H]1[C@H](CNC(C)=O)OC(=O)N21 | > 64 mg/L
CC(=O)NC[C@@H]1OC(=O)N2c3ccc(S(=O)(=O)N4CCCCC4)cc3C[C@@H]12 | > 64 mg/L

* * *

Item-by-item account of MIC
Tested on: Enterococcus faecalis
Test: Antibacterial activity against Enterococcus faecalis UC9217
Assay type: functional

structure | study.system | MIC
CC(=O)NC[C@@H]1OC(=O)N2c3ccccc3CC[C@H]12 | Enterococcus faecalis | > 64 µg/mL
CC(=O)NC[C@@H]1OC(=O)N2c3ccc(S(=O)(=O)NCc4ccccc4)cc3C[C@@H]12 | Enterococcus faecalis | > 64 µg/mL
CC(=O)NC[C@@H]1OC(=O)N2c3ccc(S(=O)(=O)Nc4ccccc4)cc3C[C@@H]12 | Enterococcus faecalis | > 64 µg/mL
CC(=O)NC[C@@H]1OC(=O)N2c3ccc(S(N)(=O)=O)cc3C[C@@H]12 | Enterococcus faecalis | > 64 µg/mL
CC(=O)NC[C@@H]1OC(=O)N2c3ccc(S(=O)(=O)NC4CCCC4)cc3C[C@@H]12 | Enterococcus faecalis | > 64 µg/mL
CC(=O)NC[C@@H]1OC(=O)N2c3ccc(S(=O)(=O)N(C)CCCO)cc3C[C@@H]12 | Enterococcus faecalis | > 64 µg/mL
CC(=O)NC[C@@H]1OC(=O)N2c3ccc(C(C)=O)cc3C[C@H]12 | Enterococcus faecalis | > 16 µg/mL
CC(=O)NC[C@@H]1OC(=O)N2c3ccc(S(=O)(=O)N(C)C)cc3C[C@@H]12 | Enterococcus faecalis | > 64 µg/mL
CC(=O)NC[C@@H]1OC(=O)N2c3ccccc3C[C@H]12 | Enterococcus faecalis | > 32 µg/mL
CC(=O)NC[C@@H]1OC(=O)N2c3ccc(C(C)=O)cc3CC[C@H]12 | Enterococcus faecalis | > 16 µg/mL
CC(=O)NC[C@@H]1OC(=O)N2c3ccc(-c4cccnc4)cc3CC[C@H]12 | Enterococcus faecalis | > 64 µg/mL
CC(=O)NC[C@@H]1OC(=O)N2c3ccccc3CC[C@@H]12 | Enterococcus faecalis | > 64 µg/mL
CC(=O)NC[C@@H]1OC(=O)N2c3ccccc3C[C@@H]12 | Enterococcus faecalis | > 32 µg/mL
